Source of measurements: patent US6375928B1

tested on: human neutrophils; assay: Chemiluminescence assay: priming of neutrophils for F-met-leu-phe response (respiratory burst); format: cell-based; details: 100 ug peptide; second, Table 4
The entries below are paired with their reported Chemiluminescence, neutrophil respiratory burst.
Could you give the number and then its unit, please?

- S R I A V S Y Q T K V N L L (SRIAVSYQTKVNLL) [Peptide 394]: 0.33 mV
- L T H T I S R I A (LTHTISRIA) [Peptide 393]: 0.31 mV
- HVLLTHTISRIAVSYQTKVNLL (HVLLTHTISRIAVSYQTKVNLL) [Peptide 309]: 4.70 mV

Field: next substance
Recorded result, A V S Y Q T K V N L L (AVSYQTKVNLL) [Peptide 396] , Chemiluminescence, neutrophil respiratory burst: 0.70 mV
